B1: CPEB3 Ribozyme (parent)
chain: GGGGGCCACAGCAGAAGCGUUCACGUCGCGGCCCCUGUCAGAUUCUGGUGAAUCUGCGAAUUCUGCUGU

Variants of: B1
ASSAY OVERVIEW: self-cleavage, relative activity (ratio to wild type); higher = more cleavage; co-transcriptional
QUANTITY NAME: self-cleavage

Observe how each entry below is paired with its result.
G3U A23G :: 0.0915
G4U U49G :: 0.357
C6U A42U :: 0.957
C32A A60C :: 0.27

List the reported self-cleavage of each variant below.
1. G1A A52U
2. A52C U64C
3. A23C C39G
4. G11C C63G
5. C32U U36G
6. G3A U53C
7. G25C G65C

0.0595
0.842
0.905
0.299
0.297
0.416
0.18
